Where do these numbers come from? They come from ChEMBL document CHEMBL3745686.

# measurement-target: UniProt Q9H244
# test: Agonist activity at human platelet P2Y12 receptor assessed as decrease in intra-platelet phosphorylated VASP by flow cytometric analysis
Active and inactive are the calls of the source. The calls are words filed in the database; no cut-off is given here.

molecule	Activity
CNc1ncnc2c1ncn2[C@@H]1O[C@H](COP(=O)(S)OP(=O)(O)C(Cl)P(=O)(O)OP(=O)(S)OC[C@H]2O[C@@H](n3cnc4c(NC)ncnc43)[C@H](O)[C@@H]2O)[C@@H](O)[C@H]1O (mixture of isomers)	inactive
Nc1nc(Br)nc2c1ncn2[C@@H]1O[C@H](COP(=O)(S)OP(=O)(O)C(Cl)P(=O)(O)OP(=O)(S)OC[C@H]2O[C@@H](n3cnc4c(N)nc(Br)nc43)[C@H](O)[C@@H]2O)[C@@H](O)[C@H]1O (mixture of isomers)	inactive
CSc1nc(N)c2ncn([C@@H]3O[C@H](COP(=O)(O)OP(=O)(O)C(Cl)P(=O)(O)OP(=O)(O)OC[C@H]4O[C@@H](n5cnc6c(N)nc(SC)nc65)[C@H](O)[C@@H]4O)[C@@H](O)[C@H]3O)c2n1 (stereo partly drawn)	inactive

* * *

# Test system: Plasma
# test: Metabolic stability in rat plasma assessed as first order elimination rate constant at 50 uM measured at 1 to 4 hrs
# Type: ADME, cell-free
quantity-name: Kel (h⁻¹)
Write the answer as a number in h⁻¹, unit excluded.

molecule	measurement-target	Kel, h⁻¹
CSc1nc(N)c2ncn([C@@H]3O[C@H](COP(=O)([S-])OP(=O)([O-])C(Cl)P(=O)([O-])OP(=O)([S-])OC[C@H]4O[C@@H](n5cnc6c(N)nc(SC)nc65)[C@H](O)[C@@H]4O)[C@@H](O)[C@H]3O)c2n1.[Na+].[Na+].[Na+].[Na+] (single isomer, unassigned; diastereomer 2)	Plasma	0.137

Next item in the queue.
Enter reported Kel observed with Plasma for CSc1nc(N)c2ncn([C@@H]3O[C@H](COP(=O)([S-])OP(=O)([O-])C(Cl)P(=O)([O-])OP(=O)([S-])OC[C@H]4O[C@@H](n5cnc6c(N)nc(SC)nc65)[C@H](O)[C@@H]4O)[C@@H](O)[C@H]3O)c2n1.[Na+].[Na+].[Na+].[Na+] (single isomer, unassigned; diastereomer 3)
0.128

* * *

# measurement-target: P2Y purinoceptor 1 (Homo sapiens, UniProt P47900)
# Sequence (P47900 whole entry): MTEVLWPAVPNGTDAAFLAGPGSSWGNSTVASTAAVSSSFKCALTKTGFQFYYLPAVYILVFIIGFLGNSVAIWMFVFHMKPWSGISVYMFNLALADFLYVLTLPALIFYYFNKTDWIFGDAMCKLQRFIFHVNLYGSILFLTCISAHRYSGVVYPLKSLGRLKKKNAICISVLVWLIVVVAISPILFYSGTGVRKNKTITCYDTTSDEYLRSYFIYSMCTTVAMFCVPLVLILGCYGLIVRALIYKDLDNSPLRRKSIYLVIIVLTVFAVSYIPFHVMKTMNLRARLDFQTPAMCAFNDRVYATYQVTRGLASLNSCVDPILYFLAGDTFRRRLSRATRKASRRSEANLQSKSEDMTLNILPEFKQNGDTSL
# test: Agonist activity at human platelet P2Y1 receptor assessed as increase in cytosolic calcium level by FLUO-4 staining based flow cytometric analysis
# Format: functional
The source made the active and inactive calls. No cut-off for these calls is given here.

compound	measurement-target	Activity
CCCCCSc1nc(N)c2ncn([C@@H]3O[C@H](COP(=O)(S)OP(=O)(O)C(Cl)P(=O)(O)OP(=O)(S)OC[C@H]4O[C@@H](n5cnc6c(N)nc(SCCCCC)nc65)[C@H](O)[C@@H]4O)[C@@H](O)[C@H]3O)c2n1 (mixture of isomers)	P2Y purinoceptor 1 (Homo sapiens, UniProt P47900)	inactive
CNc1ncnc2c1ncn2[C@@H]1O[C@H](COP(=O)(S)OP(=O)(O)C(Cl)P(=O)(O)OP(=O)(S)OC[C@H]2O[C@@H](n3cnc4c(NC)ncnc43)[C@H](O)[C@@H]2O)[C@@H](O)[C@H]1O (mixture of isomers)	P2Y purinoceptor 1 (Homo sapiens, UniProt P47900)	inactive

* * *

# measurement-target: P2X purinoceptor 1 (Homo sapiens)
# test: Agonist activity at human platelet P2X1 receptor assessed as increase in cytosolic calcium level at 1 uM by […] staining based flow cytometric analysis relative to beta,gamma-CH2-ATP
quantity-name: Activity (%)

compound	Activity, %
CCCSc1nc(N)c2ncn([C@@H]3O[C@H](COP(=O)(S)OP(=O)(O)C(Cl)P(=O)(O)OP(=O)(S)OC[C@H]4O[C@@H](n5cnc6c(N)nc(SCCC)nc65)[C@H](O)[C@@H]4O)[C@@H](O)[C@H]3O)c2n1 (mixture of isomers)	31
CSc1nc(N)c2ncn([C@@H]3O[C@H](COP(=O)(S)OP(=O)(O)C(Cl)P(=O)(O)OP(=O)(S)OC[C@H]4O[C@@H](n5cnc6c(N)nc(SC)nc65)[C@H](O)[C@@H]4O)[C@@H](O)[C@H]3O)c2n1 (mixture of isomers)	0.24

(1) Nc1nc(I)nc2c1ncn2[C@@H]1O[C@H](COP(=O)(S)OP(=O)(O)C(Cl)P(=O)(O)OP(=O)(S)OC[C@H]2O[C@@H](n3cnc4c(N)nc(I)nc43)[C@H](O)[C@@H]2O)[C@@H](O)[C@H]1O (mixture of isomers)
(2) CSc1nc(N)c2ncn([C@@H]3O[C@H](COP(=O)(S)OP(=O)(O)C(Cl)(Cl)P(=O)(O)OP(=O)(S)OC[C@H]4O[C@@H](n5cnc6c(N)nc(SC)nc65)[C@H](O)[C@@H]4O)[C@@H](O)[C@H]3O)c2n1 (mixture of isomers)
I'm curious whether 1 or 2 has the smaller Activity number. Which is it? // respond with label for picked entry
1
(1: 0.69%, 2: 3.3%)

* * *

# measurement-target: P2Y purinoceptor 12 (Homo sapiens, UniProt Q9H244)
# Sequence (Q9H244 whole entry): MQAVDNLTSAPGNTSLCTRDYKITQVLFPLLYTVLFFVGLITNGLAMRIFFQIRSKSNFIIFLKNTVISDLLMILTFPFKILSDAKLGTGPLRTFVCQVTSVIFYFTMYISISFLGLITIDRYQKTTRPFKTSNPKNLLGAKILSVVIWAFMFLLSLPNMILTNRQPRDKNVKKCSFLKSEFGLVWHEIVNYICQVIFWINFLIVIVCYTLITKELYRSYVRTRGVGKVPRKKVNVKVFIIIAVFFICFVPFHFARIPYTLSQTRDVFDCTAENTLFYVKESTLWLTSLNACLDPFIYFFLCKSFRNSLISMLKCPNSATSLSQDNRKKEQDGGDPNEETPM
# test: Antagonist activity at human platelet P2Y12 receptor assessed as inhibition of ADP-mediated decrease in intra-platelet phosphorylated VASP by flow cytometric analysis
quantity-name: IC50 (nM)

Use these answered entries as a reference point.
molecule	quantity-name	measured
CNc1nc(SC)nc2c1ncn2[C@@H]1O[C@H](COP(=O)(S)OP(=O)(O)C(Cl)P(=O)(O)OP(=O)(S)OC[C@H]2O[C@@H](n3cnc4c(NC)nc(SC)nc43)[C@H](O)[C@@H]2O)[C@@H](O)[C@H]1O (some centres not stated)	IC50	730
Nc1nc(Cl)nc2c1ncn2[C@@H]1O[C@H](COP(=O)(S)OP(=O)(O)C(Cl)P(=O)(O)OP(=O)(S)OC[C@H]2O[C@@H](n3cnc4c(N)nc(Cl)nc43)[C@H](O)[C@@H]2O)[C@@H](O)[C@H]1O (mixture of isomers)	IC50	9300
Nc1nc(SCCC(F)(F)F)nc2c1ncn2[C@@H]1O[C@H](COP(=O)(S)OP(=O)(O)C(Cl)P(=O)(O)OP(=O)(S)OC[C@H]2O[C@@H](n3cnc4c(N)nc(SCCC(F)(F)F)nc43)[C@H](O)[C@@H]2O)[C@@H](O)[C@H]1O (mixture of isomers)	IC50	210
CSc1nc(N)c2ncn([C@@H]3O[C@H](COP(=O)(S)OP(=O)(O)C(Cl)(Cl)P(=O)(O)OP(=O)(S)OC[C@H]4O[C@@H](n5cnc6c(N)nc(SC)nc65)[C@H](O)[C@@H]4O)[C@@H](O)[C@H]3O)c2n1 (mixture of isomers)	IC50	1120
CSc1nc(N)c2ncn([C@@H]3O[C@H](COP(=O)([S-])OP(=O)([O-])C(Cl)P(=O)([O-])OP(=O)([S-])OC[C@H]4O[C@@H](n5cnc6c(N)nc(SC)nc65)[C@H](O)[C@@H]4O)[C@@H](O)[C@H]3O)c2n1.[Na+].[Na+].[Na+].[Na+] (mixture of isomers)	IC50	220

(A) Nc1nc(I)nc2c1ncn2[C@@H]1O[C@H](COP(=O)(S)OP(=O)(O)C(Cl)P(=O)(O)OP(=O)(S)OC[C@H]2O[C@@H](n3cnc4c(N)nc(I)nc43)[C@H](O)[C@@H]2O)[C@@H](O)[C@H]1O (mixture of isomers)
(B) Nc1nc(Br)nc2c1ncn2[C@@H]1O[C@H](COP(=O)(S)OP(=O)(O)C(Cl)P(=O)(O)OP(=O)(S)OC[C@H]2O[C@@H](n3cnc4c(N)nc(Br)nc43)[C@H](O)[C@@H]2O)[C@@H](O)[C@H]1O (mixture of isomers)
So which one has the bigger IC50 here, A or B ? // respond with label for picked entry
A
(A: 1350 nM, B: 340 nM)

* * *

# measurement-target: P2Y purinoceptor 1 (Homo sapiens, UniProt P47900)
# test: Antagonist activity at human platelet P2Y1 receptor assessed as inhibition of ADP-induced increase in cytosolic calcium level by FLUO-4 staining based flow cytometric analysis
pIC50: −log10 of the molar value.
quantity-name: pIC50

(a) CCCNc1ncnc2c1ncn2[C@@H]1O[C@H](COP(=O)(S)OP(=O)(O)C(Cl)P(=O)(O)OP(=O)(S)OC[C@H]2O[C@@H](n3cnc4c(NCCC)ncnc43)[C@H](O)[C@@H]2O)[C@@H](O)[C@H]1O (mixture of isomers)
(b) Nc1nc(I)nc2c1ncn2[C@@H]1O[C@H](COP(=O)(S)OP(=O)(O)C(Cl)P(=O)(O)OP(=O)(S)OC[C@H]2O[C@@H](n3cnc4c(N)nc(I)nc43)[C@H](O)[C@@H]2O)[C@@H](O)[C@H]1O (mixture of isomers)
So which one has the bigger pIC50 here, a or b ? // respond with label for picked entry
b

* * *

# measurement-target: P2X purinoceptor 1 (Homo sapiens) (UniProt P51575)
# Sequence (P51575 whole entry): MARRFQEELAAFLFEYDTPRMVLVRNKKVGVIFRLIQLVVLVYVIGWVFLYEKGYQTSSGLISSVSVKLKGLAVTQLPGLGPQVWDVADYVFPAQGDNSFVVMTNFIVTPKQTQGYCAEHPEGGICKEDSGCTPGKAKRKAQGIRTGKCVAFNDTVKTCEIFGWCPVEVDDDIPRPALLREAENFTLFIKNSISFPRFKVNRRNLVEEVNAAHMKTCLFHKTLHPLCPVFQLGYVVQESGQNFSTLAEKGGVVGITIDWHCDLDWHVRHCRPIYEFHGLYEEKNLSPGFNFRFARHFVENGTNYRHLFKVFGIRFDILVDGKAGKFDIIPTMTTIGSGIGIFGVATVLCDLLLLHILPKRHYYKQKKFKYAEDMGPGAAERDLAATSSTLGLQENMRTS
# test: Agonist activity at human platelet P2X1 receptor assessed as increase in cytosolic calcium level at 1 uM by […] staining based flow cytometric analysis relative to beta,gamma-CH2-ATP
quantity-name: Activity (%)

(P) Nc1ncnc2c1ncn2[C@@H]1O[C@H](COP(=O)(O)OP(=O)(O)OP(=O)(O)OP(=O)(O)OC[C@H]2O[C@@H](n3cnc4c(N)ncnc43)[C@H](O)[C@@H]2O)[C@@H](O)[C@H]1O [DIADENOSINE TETRAPHOSPHATE]
(Q) CCCNc1ncnc2c1ncn2[C@@H]1O[C@H](COP(=O)(S)OP(=O)(O)C(Cl)P(=O)(O)OP(=O)(S)OC[C@H]2O[C@@H](n3cnc4c(NCCC)ncnc43)[C@H](O)[C@@H]2O)[C@@H](O)[C@H]1O (mixture of isomers)
I'm curious whether P or Q has the smaller Activity number. Which is it? // respond with label for picked entry
Q
(Q: -0.01%, P: 198%)
